The values you see were collected from PubChem BioAssay AID2060889.

Test system: LG0567-F671-PDC complex spheroids viability;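 also: spheroids exposed to compound for seven days before readout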
assayDetails: Anticancer human tumor LG0567-F671-PDC patient-derived lung adenocarcinoma cell line growth inhibition [RAS]; active = viability on the fitted dose curve at most 10% of control; inactive = the rest
protocolConditions: compound 3.16 µM
Pick one: True (active), False (inactive)

Solved entries (count: 2):
>>> classassignment("Cc1nc(N2CCC3(CC2)COC(C)C3N)c(CO)nc1Sc1ccnc(N)c1Cl (stereo not drawn)")
"False"
>>> classassignment("CC(=O)OC12COC1CC(O)C1(C)C(=O)C(O)C3=C(C)C(OC(=O)C(O)C(NC(=O)OC(C)(C)C)c4ccccc4)CC(O)(C(OC(=O)c4ccccc4)C21)C3(C)C (stereo not drawn)")
"False"

We now examine a further molecule.
Problem: Record lookup: outcome of this test for CCC(CC)c1cc(NC2CCC(N)C2)n2nccc2n1 (stereo not drawn) ?
Solution: True
